Taken from patent US8420657B2.

Biological target: PDGFRalpha (Homo sapiens, UniProt P16234)
Construct: using the recombinant domains of cMet, cKit, ALK and PDGFRalpha kinases
Sequence (P16234 593-954 limits assumed, species assumed): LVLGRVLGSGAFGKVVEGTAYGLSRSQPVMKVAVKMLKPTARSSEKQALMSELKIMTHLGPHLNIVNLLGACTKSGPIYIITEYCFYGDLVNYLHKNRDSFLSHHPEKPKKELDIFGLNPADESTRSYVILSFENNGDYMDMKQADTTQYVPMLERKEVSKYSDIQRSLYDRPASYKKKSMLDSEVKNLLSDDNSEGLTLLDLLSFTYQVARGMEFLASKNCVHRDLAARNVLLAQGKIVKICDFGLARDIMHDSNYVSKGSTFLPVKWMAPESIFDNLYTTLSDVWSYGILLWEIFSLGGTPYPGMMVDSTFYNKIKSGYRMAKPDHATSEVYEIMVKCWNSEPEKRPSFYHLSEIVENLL
Assay: PDGFRalpha LanthaScreen TR-FRET kinase phosphorylation assay
Conditions: recombinant kinase domain, read-out: PDGFRa/IC50
property.measured: IC50 (µM)
Supply the numeric figure in µM, leaving out any unit text.

Qu. Dear colleague, please send me the reported IC50 for `C[C@@H]1CN(c2ccc(Nc3ncc4ccn(-c5ccc(NS(C)(=O)=O)cc5)c4n3)cn2)C[C@H](C)N1` when you can.
Ans. 5.3

Qu. Dear colleague, please send me the reported IC50 for `Cn1cc(Nc2ncc3ccn(-c4ccc(CC(=O)N5CCOCC5)cc4)c3n2)cn1` when you can.
Ans. 5.6

Qu. Dear colleague, please send me the reported IC50 for `COCc1c(F)cc(-n2ccc3cnc(Nc4ccc(N5CCN(C)CC5)nc4)nc32)cc1F` when you can.
Ans. 7.45

Qu. Dear colleague, please send me the reported IC50 for `CN1CCN(c2ccc(Nc3ncc4ccn(-c5ccc(C#N)cc5)c4n3)cn2)CC1` when you can.
Ans. 2.65

Qu. Dear colleague, please send me the reported IC50 for `Cc1ccc(Nc2ncc3ccn(-c4cc(F)c(CN5CCOCC5)c(F)c4)c3n2)cc1CN1CCNCC1` when you can.
Ans. 6.7

Qu. Dear colleague, please send me the reported IC50 for `Cc1ccc(Nc2ncc3ccn(-c4ccc(C(=O)N5CCN(CCO)CC5)cc4)c3n2)cc1C` when you can.
Ans. 7.7

====

Tested on: JAK2-dependent nuclear translocation of STAT5-GFP in U-2 OS osteosarcoma cells
Test: STAT5 nuclear translocation assay (Cellomics), rhEpo stimulated U-2 OS STAT5-GFP cells
Format: cell-based
Conditions: Homo sapiens, U2OS; STAT5 translocation pathway
property.measured: pIC50
Would you please state pIC50, meaning minus log10 of the concentration in mol/L, as a bare number?

Qu. Write down measured pIC50 (JAK2-dependent nuclear translocation of STAT5-GFP in U-2 OS osteosarcoma cells) for this compound. Cc1cc(Nc2ncc3ccn(-c4cc(F)c(CN5CCOCC5)c(F)c4)c3n2)cnc1N1CCNCC1=O [Example 495]
Ans. 7.29

Qu. Write down measured pIC50 (JAK2-dependent nuclear translocation of STAT5-GFP in U-2 OS osteosarcoma cells) for this compound. Cc1cc(Nc2ncc3ccn(-c4cc(F)c(CN5CCOCC5=O)c(F)c4)c3n2)cnc1N1C[C@@H](C)N[C@@H](C)C1 [Example 483]
Ans. 7.91

Qu. Write down measured pIC50 (JAK2-dependent nuclear translocation of STAT5-GFP in U-2 OS osteosarcoma cells) for this compound. CN1CCN(C(=O)c2ccc(Nc3ncc4ccn(-c5cc(F)c(CN6CCOCC6)c(F)c5)c4n3)cn2)CC1 [Example 466]
Ans. 7.25

Qu. Write down measured pIC50 (JAK2-dependent nuclear translocation of STAT5-GFP in U-2 OS osteosarcoma cells) for this compound. Fc1cc(-n2ccc3cnc(Nc4ccc(N5CCN(C6CC6)CC5)nc4)nc32)cc(F)c1CN1CCOCC1 [Example 457]
Ans. 7.68

Qu. Write down measured pIC50 (JAK2-dependent nuclear translocation of STAT5-GFP in U-2 OS osteosarcoma cells) for this compound. O=C1CN(c2ncc(Nc3ncc4ccn(-c5cc(F)c(CN6CCOCC6)c(F)c5)c4n3)cc2Cl)CCN1 [Example 491]
Ans. 7.82

Qu. Write down measured pIC50 (JAK2-dependent nuclear translocation of STAT5-GFP in U-2 OS osteosarcoma cells) for this compound. C[C@@H]1CN(c2ncc(Nc3ncc4ccn(-c5cc(F)c(CN6CCOCC6)c(F)c5)c4n3)cc2C#N)C[C@H](C)N1 [Example 490]
Ans. 7.85

Qu. Write down measured pIC50 (JAK2-dependent nuclear translocation of STAT5-GFP in U-2 OS osteosarcoma cells) for this compound. Fc1cc(-n2ccc3cnc(Nc4ccc5c(c4)NCC5)nc32)cc(F)c1CN1CCOCC1 [Example 431]
Ans. 7.63

====

Molecular target: GST-JAK2(808-1132) (Homo sapiens)
Construct: GST-JAK2(808-1132); purchased Invitrogen (Carlsbad, USA) #4288
Assay: JAK2 kinase assay (Caliper mobility shift, LabChip 3000)
Assay type: biochemical
property.measured: pIC50
Would you please state pIC50, meaning minus log10 of the concentration in mol/L, as a bare number?

Qu. Dear colleague, please send me the reported pIC50 for C[C@@H]1CN(c2ccc(Nc3ncc4ccn(-c5ccc(NS(C)(=O)=O)cc5)c4n3)cn2)C[C@H](C)N1 [Example 380] when you can.
Ans. 8.49

Qu. Dear colleague, please send me the reported pIC50 for CN1CCN(C(=O)c2cc(Nc3ncc4ccn(-c5cc(F)c(CN6CCOCC6)c(F)c5)c4n3)ccn2)CC1 [Example 361] when you can.
Ans. 7.64

Qu. Dear colleague, please send me the reported pIC50 for CC(C)Oc1ccc(Nc2ncc3ccn(-c4ccc(C(=O)N5CCOCC5)cc4)c3n2)cc1 [Example 231] when you can.
Ans. 8.49

Qu. Dear colleague, please send me the reported pIC50 for CN1CCN(c2ccc(Nc3ncc4ccn(-c5ccc(C#N)cc5)c4n3)cn2)CC1 [Example 278] when you can.
Ans. 7.96

Qu. Dear colleague, please send me the reported pIC50 for COc1ccc(Nc2ncc3ccn(-c4ccc(C(=O)N5CCS(=O)(=O)CC5)cc4)c3n2)cn1 [Example 250] when you can.
Ans. 8.04

====

Biological target: GST-JAK2(808-1132) (Homo sapiens)
Construct: GST-JAK2(808-1132); purchased Invitrogen (Carlsbad, USA) #4288
Assay: JAK2 kinase assay (Caliper mobility shift, LabChip 3000)
Assay type: biochemical
property.measured: IC50 (nM)
Supply the numeric figure in nM, leaving out any unit text.

Qu. Dear colleague, please send me the reported IC50 for `CC(=O)N1CCN(Cc2ccc(Nc3ncc4ccn(-c5cc(F)c(CN6CCNC(=O)C6)c(F)c5)c4n3)cc2)CC1` when you can.
Ans. 3.7

Qu. Dear colleague, please send me the reported IC50 for Cc1cc(Nc2ncc3ccn(-c4cc(F)c(C(=O)N5CCOCC5)c(F)c4)c3n2)ccc1F [Example 213] when you can.
Ans. 5.9

Qu. Dear colleague, please send me the reported IC50 for `CN1CCN(Cc2ccc(Nc3ncc4ccn(-c5cc(F)c(CN6CCOCC6)c(F)c5)c4n3)cn2)CC1=O` when you can.
Ans. 4.1

Qu. Dear colleague, please send me the reported IC50 for `CS(=O)(=O)c1ccc(-n2ccc3cnc(Nc4ccc(F)c(C(=O)N5CCOCC5)c4)nc32)cc1` when you can.
Ans. 38

Qu. Dear colleague, please send me the reported IC50 for `Cc1ccc(Nc2ncc3ccn(-c4ccc(C(=O)N5CCS(=O)(=O)CC5)cc4)c3n2)cn1` when you can.
Ans. 4.3

====

Target: GST-JAK2(808-1132) (Homo sapiens)
Construct: GST-JAK2(808-1132); purchased Invitrogen (Carlsbad, USA) #4288
Assay: JAK2 kinase assay (Caliper mobility shift, LabChip 3000)
Type: biochemical
Provide the reported IC50 of each item.
Supply the numeric figure in nM, leaving out any unit text.

Qu. Dear colleague, please send me the reported IC50 for COCCOc1ccc(Nc2ncc3ccn(-c4cc(F)c(CN5CCOCC5)c(F)c4)c3n2)cn1 [Example 516] when you can.
Ans. 6.4

Qu. Dear colleague, please send me the reported IC50 for Cc1ccc(Nc2ncc3ccn(-c4cc(F)c(CN5CCOCC5)c(F)c4)c3n2)cc1CN1CCN(C2CC2)CC1 [Example 365] when you can.
Ans. 4.6

Qu. Dear colleague, please send me the reported IC50 for CS(=O)(=O)c1ccc(-n2ccc3cnc(Nc4ccc5c(c4)OC(F)(F)C(F)(F)O5)nc32)cc1 [Example 14] when you can.
Ans. 2100

Qu. Dear colleague, please send me the reported IC50 for COCCn1cc(Nc2ncc3ccn(-c4cc(F)c(CN5CCOCC5)c(F)c4)c3n2)cn1 [Example 252] when you can.
Ans. 3.3

====

Provide the reported IC50 of each item.
Molecular target: GST-JAK2(808-1132) (Homo sapiens, UniProt O60674)
Construct: GST-JAK2(808-1132); purchased Invitrogen (Carlsbad, USA) #4288
Sequence (O60674 808-1132): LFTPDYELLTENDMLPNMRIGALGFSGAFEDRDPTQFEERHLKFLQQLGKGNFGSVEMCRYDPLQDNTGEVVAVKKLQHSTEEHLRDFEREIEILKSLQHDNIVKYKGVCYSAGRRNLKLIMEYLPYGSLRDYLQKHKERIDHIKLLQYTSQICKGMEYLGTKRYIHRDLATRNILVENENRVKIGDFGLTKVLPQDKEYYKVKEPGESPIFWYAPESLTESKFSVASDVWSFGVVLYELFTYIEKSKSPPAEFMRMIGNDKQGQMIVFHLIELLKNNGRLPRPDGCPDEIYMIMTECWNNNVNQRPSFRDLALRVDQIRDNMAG
Assay: JAK2 kinase assay (Caliper mobility shift, LabChip 3000)
Type: biochemical
Experimental: All four kinases of the JAK/TYK-kinase family were used as purified recombinant GST-fusion proteins, containing the active kinase domains. GST-JAK1 (866-1154), GST-JAK3(811-1124), and GST-TYK2(888-1187) were expressed and purified by affinity chromatography at the EPK biology unit. […] The terminated reactions were transferred to the Caliper LabChip 3000 reader and the turnover of each reaction was measured by determining the substrate/product ratio. […]

Qu. Dear colleague, please send me the reported IC50 for `Fc1cc(-n2ccc3cnc(Nc4cccc([C@H]5COCCN5)c4)nc32)cc(F)c1CN1CCOCC1` when you can.
Ans. < 3 nM

Qu. Dear colleague, please send me the reported IC50 for `O=C(c1c(F)cc(-n2ccc3cnc(Nc4ccccn4)nc32)cc1F)N1CCOCC1` when you can.
Ans. 420 nM

Qu. Dear colleague, please send me the reported IC50 for `Cc1ccc(Nc2ncc3ccn(-c4ccc(S(N)(=O)=O)cc4)c3n2)cc1CN1CCN(C)CC1` when you can.
Ans. 3.2 nM

Qu. Dear colleague, please send me the reported IC50 for Fc1cc(-n2ccc3cnc(Nc4ccnc(N5CCNC(C(F)(F)F)C5)c4)nc32)cc(F)c1CN1CCOCC1 (racemic) when you can.
Ans. ≤ 3 nM

Qu. Dear colleague, please send me the reported IC50 for Cc1ccc(Nc2ncc3ccn(-c4cc(F)c(CN5CCOCC5)c(F)c4)c3n2)cc1CN1CCC2(CCN(C)C2)C1 (stereo not shown) when you can.
Ans. ≤ 3 nM

Qu. Dear colleague, please send me the reported IC50 for `COc1cc(C)c(Nc2ncc3ccn(-c4ccc(S(C)(=O)=O)cc4)c3n2)cc1OC` when you can.
Ans. 190 nM

Qu. Dear colleague, please send me the reported IC50 for `C[C@@H]1CN(c2ccc(Nc3ncc4ccn(-c5cc(F)c(C(=O)N6CCOCC6)c(F)c5)c4n3)cn2)C[C@H](C)N1` when you can.
Ans. 8.4 nM
